Attribute: Activity (relative rate of hydrolysis)
biological target: HvExoI W434Y mutant (Hordeum vulgare, UniProt Q9XEI3, W459Y); assay: Relative rates of hydrolysis of poly-, oligosaccharides and aryl-glycosides; assay type: biochemical; details: substance is the substrate, nd = activity not detected
Sequence (Q9XEI3 26-630 W459Y): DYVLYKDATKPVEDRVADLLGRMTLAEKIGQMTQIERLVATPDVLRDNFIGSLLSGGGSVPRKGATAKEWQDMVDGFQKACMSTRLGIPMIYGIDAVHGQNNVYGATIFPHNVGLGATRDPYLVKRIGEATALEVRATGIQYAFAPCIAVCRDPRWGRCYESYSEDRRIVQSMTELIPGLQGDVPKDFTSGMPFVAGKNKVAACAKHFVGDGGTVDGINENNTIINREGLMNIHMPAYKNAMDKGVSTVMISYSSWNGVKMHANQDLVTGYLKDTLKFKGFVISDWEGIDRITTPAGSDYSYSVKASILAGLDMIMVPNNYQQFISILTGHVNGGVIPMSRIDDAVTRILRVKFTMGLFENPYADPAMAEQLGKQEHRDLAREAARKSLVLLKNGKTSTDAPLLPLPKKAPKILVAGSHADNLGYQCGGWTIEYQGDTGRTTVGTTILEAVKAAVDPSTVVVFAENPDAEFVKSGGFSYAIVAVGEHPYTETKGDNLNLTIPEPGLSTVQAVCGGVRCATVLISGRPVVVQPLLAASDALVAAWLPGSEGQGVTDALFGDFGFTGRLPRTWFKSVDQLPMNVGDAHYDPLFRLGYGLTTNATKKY
Please respond with the number in μmole/min per mg protein and leave the unit unwritten.

As a guide, the following entries are already answered.
[[record]]
compound = "OC[C@H]1O[C@@H](O[C@@H]2[C@@H](O)[C@H](O[C@@H]3[C@@H](O)[C@H](O[C@@H]4[C@@H](O)[C@H](O[C@@H]5[C@@H](O)[C@H](O[C@@H]6[C@@H](O)[C@H](O[C@@H]7[C@@H](O)[C@H](O)O[C@H](CO)[C@H]7O)O[C@H](CO)[C@H]6O)O[C@H](CO)[C@H]5O)O[C@H](CO)[C@H]4O)O[C@H](CO)[C@H]3O)O[C@H](CO)[C@H]2O)[C@H](O)[C@@H](O)[C@@H]1O"
assay_target = "HvExoI W434Y mutant (Hordeum vulgare, UniProt Q9XEI3, W459Y)"
display_unit = "μmole/min per mg protein"
numeric_value = 1.3

[[record]]
compound = "OC[C@H]1O[C@@H](O[C@@H]2[C@@H](O)[C@H](O[C@@H]3[C@@H](O)[C@H](O[C@H]4[C@H](O)[C@@H](CO)OC(O)[C@@H]4O)O[C@H](CO)[C@H]3O)O[C@H](CO)[C@H]2O)[C@H](O)[C@@H](O)[C@@H]1O (stereo partly shown)"
assay_target = "HvExoI W434Y mutant (Hordeum vulgare, UniProt Q9XEI3, W459Y)"
display_unit = "μmole/min per mg protein"
numeric_value = 1.3

[[record]]
compound = "OC[C@H]1O[C@@H](O[C@H]2[C@H](O)[C@@H](O)[C@H](O[C@H]3[C@H](O)[C@@H](O)[C@H](O[C@H]4[C@H](O)[C@@H](O)[C@H](O[C@H]5[C@H](O)[C@@H](O)C(O)O[C@@H]5CO)O[C@@H]4CO)O[C@@H]3CO)O[C@@H]2CO)[C@H](O)[C@@H](O)[C@@H]1O (stereo partly shown)"
assay_target = "HvExoI W434Y mutant (Hordeum vulgare, UniProt Q9XEI3, W459Y)"
display_unit = "μmole/min per mg protein"
numeric_value = 0.1

[[record]]
compound = "OC[C@H]1O[C@@H](O[C@H]2[C@H](O)[C@@H](O)[C@H](O[C@H]3[C@H](O)[C@@H](O)C(O)O[C@@H]3CO)O[C@@H]2CO)[C@H](O)[C@@H](O)[C@@H]1O (stereo partly shown)"
assay_target = "HvExoI W434Y mutant (Hordeum vulgare, UniProt Q9XEI3, W459Y)"
display_unit = "μmole/min per mg protein"
numeric_value = 0.1


Determine reported Activity (relative rate of hydrolysis) for OC[C@H]1O[C@@H](O[C@H]2[C@H](O)[C@@H](O)[C@H](O[C@H]3[C@H](O)[C@@H](O)[C@H](O[C@H]4[C@H](O)[C@@H](O)C(O)O[C@@H]4CO)O[C@@H]3CO)O[C@@H]2CO)[C@H](O)[C@@H](O)[C@@H]1O (stereo partly shown) ; test system: HvExoI W434Y mutant (Hordeum vulgare, UniProt Q9XEI3, W459Y).
0.1

Determine reported Activity (relative rate of hydrolysis) for OC[C@H]1O[C@@H](O[C@H]2[C@H](O)[C@@H](O)[C@H](O[C@H]3[C@H](O)[C@@H](O)[C@H](O[C@H]4[C@H](O)[C@@H](O)[C@H](O[C@H]5[C@H](O)[C@@H](O)[C@H](O[C@H]6[C@H](O)[C@@H](O)C(O)O[C@@H]6CO)O[C@@H]5CO)O[C@@H]4CO)O[C@@H]3CO)O[C@@H]2CO)[C@H](O)[C@@H](O)[C@@H]1O (stereo partly shown) ; test system: HvExoI W434Y mutant (Hordeum vulgare, UniProt Q9XEI3, W459Y).
0.1

Determine reported Activity (relative rate of hydrolysis) for OC[C@H]1O[C@@H](O[C@@H]2[C@@H](O)[C@H](O[C@H]3[C@H](O)[C@@H](CO)OC(O)[C@@H]3O)O[C@H](CO)[C@H]2O)[C@H](O)[C@@H](O)[C@@H]1O (stereo partly shown) ; test system: HvExoI W434Y mutant (Hordeum vulgare, UniProt Q9XEI3, W459Y).
1.4
